target: M1 muscarinic receptor (Homo sapiens, UniProt P11229); construct: expressed in transfected cells; host or cells: CHO (M1-CHO); assay: Functional mobilization of intracellular calcium (FLIPR) in CHO cells expressing M1; type: cell-based; conditions: CHO; 100% = maximum response obtained with the Carbachol control; read-out: M1 Efficacy
Sequence (P11229 whole entry): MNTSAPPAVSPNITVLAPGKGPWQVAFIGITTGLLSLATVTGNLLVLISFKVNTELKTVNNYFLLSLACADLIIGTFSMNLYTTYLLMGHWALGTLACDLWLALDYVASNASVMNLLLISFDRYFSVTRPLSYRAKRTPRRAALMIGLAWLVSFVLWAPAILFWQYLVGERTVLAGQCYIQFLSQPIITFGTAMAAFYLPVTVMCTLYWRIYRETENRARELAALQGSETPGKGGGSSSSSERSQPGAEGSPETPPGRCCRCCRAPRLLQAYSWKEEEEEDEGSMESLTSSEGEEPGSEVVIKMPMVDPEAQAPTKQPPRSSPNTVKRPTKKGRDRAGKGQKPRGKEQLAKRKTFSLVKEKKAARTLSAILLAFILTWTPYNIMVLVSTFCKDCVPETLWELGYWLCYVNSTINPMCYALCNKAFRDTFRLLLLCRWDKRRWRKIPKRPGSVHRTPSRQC
reportedEndpoint: Emax

A selection of reference data follows.
compound	systemUnderTest	measValue
CC(C)(C)CCN1CCC2(CC[C@H](NC(=O)c3cccnc3)c3ccccc32)CC1	M1 muscarinic receptor (Homo sapiens, UniProt P11229)	25 to 100%
CCn1cc(C(=O)N[C@H]2CCC3(CCN(CCC(C)(C)C)CC3)c3ccccc32)cn1	M1 muscarinic receptor (Homo sapiens, UniProt P11229)	25 to 100%
CCN(C(=O)c1cncn1C)[C@H]1CCC2(CCN(CCC(C)(C)C)CC2)c2ccccc21	M1 muscarinic receptor (Homo sapiens, UniProt P11229)	25 to 100%
CC(C)(C)CCN1CCC2(CC[C@@H](NC(=O)CN3CCCCCC3=O)c3ccccc32)CC1	M1 muscarinic receptor (Homo sapiens, UniProt P11229)	25 to 100%
CC(=O)N1CCCC[C@H]1C(=O)N[C@@H]1CCC2(CCN(CCC(C)(C)C)CC2)c2cc(F)ccc21	M1 muscarinic receptor (Homo sapiens, UniProt P11229)	25 to 100%
COCCC(=O)N[C@H]1CCC2(CCN(CCC(C)(C)C)CC2)c2ccccc21	M1 muscarinic receptor (Homo sapiens, UniProt P11229)	25 to 100%
CC(C)(C)CCN1CCC2(CC[C@H](NC(=O)C3CCCO3)c3ccc(F)cc32)CC1 (stereo partly drawn)	M1 muscarinic receptor (Homo sapiens, UniProt P11229)	25 to 100%
CCN(C(=O)CCC(=O)NC)[C@H]1CCC2(CCN(CCC(C)(C)C)CC2)c2ccccc21	M1 muscarinic receptor (Homo sapiens, UniProt P11229)	25 to 100%

Record Emax for all entries; do not skip any.
1. C[C@@H](O)CC(=O)N[C@H]1CCC2(CCN(CCC(C)(C)C)CC2)c2ccccc21
2. CC(C)(C)CCN1CCC2(CC[C@H](N3C(=O)CCC3=O)c3ccccc32)CC1

Response line:
1: 25 to 100%; 2: 25 to 100%

Record Emax for all entries; do not skip any.
1. CCN(C(=O)CCNC(C)=O)[C@@H]1CCC2(CCN(CCC(C)(C)C)CC2)c2ccccc21
2. CCC(CC)N1CCC2(CC[C@H](NC(C)=O)c3ccccc32)CC1
3. CC(CC(C)(C)C)N1CCC2(CC[C@H](NC(=O)N(C)C)c3ccccc32)CC1 (stereo partly drawn)
4. CC(C)(C)CCN1CCC2(CC[C@@H](N3CCCC3=O)c3ccc(F)cc32)CC1
5. CC(=O)N(C)[C@H]1CCC2(CCN(CCC(C)(C)C)CC2)c2ccccc21

Response line:
< 25%
25 to 100%
< 25%
< 25%
25 to 100%

Record Emax for all entries; do not skip any.
1. CC(=O)N1CCCC[C@@H]1C(=O)N[C@H]1CCC2(CCN(CCC(C)(C)C)CC2)c2cc(F)ccc21
2. CC(=O)N1CCCC1C(=O)N[C@H]1CCC2(CCN(CCC(C)(C)C)CC2)c2ccccc21 (stereo partly drawn)
3. C[C@H](C(=O)N[C@H]1CCC2(CCN(CCC(C)(C)C)CC2)c2ccccc21)N1CCCCC1=O

Response line:
25 to 100%
25 to 100%
25 to 100%

Record Emax for all entries; do not skip any.
1. CCN(C(=O)C(C)NC(C)=O)[C@H]1CCC2(CCN(CCC(C)(C)C)CC2)c2ccccc21 (stereo partly drawn)
2. CN(C)C(=O)N(C)[C@H]1CCC2(CCN(CCC(C)(C)C)CC2)c2ccccc21
3. COC(=O)CN(C(C)=O)[C@H]1CCC2(CCN(CCC(C)(C)C)CC2)c2ccccc21

Response line:
25 to 100%
25 to 100%
25 to 100%
